Reference source: PubChem BioAssay (NCI)

# System: T-47D breast
# TEST_METHOD_NOTES: NCI tumour cell line growth inhibition, 48 h
Let's look at some compounds and their measured TGI.
EXPERIMENTAL_ENDPOINT: TGI (µM)

{"COMPOUND": "NC(=O)c1ncn(C2OC(CO)C(O)C2O)n1 (stereo not given)", "TEST_SYSTEM": "T-47D breast", "COMPARISON_SYMBOL": ">", "RESULT": 100}
{"COMPOUND": "CCN(CC)CC(O)CNc1ccc(NCC(O)CCl)c2c1C(=O)c1ccccc1C2=O (stereo not given)", "TEST_SYSTEM": "T-47D breast", "COMPARISON_SYMBOL": "=", "RESULT": 38.7}
{"COMPOUND": "Cc1cc(N2CCOCC2)nc(N(CCNc2ccnc3cc(Cl)ccc23)Cc2ccco2)n1", "TEST_SYSTEM": "T-47D breast", "COMPARISON_SYMBOL": "=", "RESULT": 4.92}
{"COMPOUND": "CNC(=O)c1cc(Oc2ccc3nc(NC(=O)c4cc(C(F)(F)F)cc(C(F)(F)F)c4)sc3c2)ccn1", "TEST_SYSTEM": "T-47D breast", "COMPARISON_SYMBOL": "=", "RESULT": 9.17}
{"COMPOUND": "COC(=O)C1=C2C3=C(C(=O)c4ccccc4C3=O)N(Cc3ccccc3)C2(OC(C)=O)C=CC1=O (stereo not given)", "TEST_SYSTEM": "T-47D breast", "COMPARISON_SYMBOL": ">", "RESULT": 100}
{"COMPOUND": "CCOC(=O)C(Cc1ccc(OC(=O)c2ccc(OC)cc2OC)cc1)NC(=O)C(F)(F)F (stereo not given)", "TEST_SYSTEM": "T-47D breast", "COMPARISON_SYMBOL": "=", "RESULT": 61.6}
{"COMPOUND": "O=C(/C=C/c1ccccc1Cl)c1ccc(O)cc1", "TEST_SYSTEM": "T-47D breast", "COMPARISON_SYMBOL": "=", "RESULT": 25.9}
{"COMPOUND": "NC(=O)Cc1ccccc1Oc1nccc(-c2c(-c3ccc(F)cc3)ncn2C2CCNCC2)n1", "TEST_SYSTEM": "T-47D breast", "COMPARISON_SYMBOL": ">", "RESULT": 25}
{"COMPOUND": "COc1c(Nc2ncc(Cl)c(N[C@@H]3[C@H]4C=CC(C4)[C@@H]3C(N)=O)n2)ccc2c1CC[C@@H](N1CCOCC1)CC2", "TEST_SYSTEM": "T-47D breast", "COMPARISON_SYMBOL": "=", "RESULT": 25.5}
{"COMPOUND": "O=C1OCC2=C1C(c1ccccc1)c1cc3c(cc1N2CCO)CCC3 (stereo not given)", "TEST_SYSTEM": "T-47D breast", "COMPARISON_SYMBOL": ">", "RESULT": 25}
{"COMPOUND": "Brc1ccc(-c2ccc(-c3ccc(-c4ccc(Br)s4)s3)s2)s1", "TEST_SYSTEM": "T-47D breast", "COMPARISON_SYMBOL": ">", "RESULT": 100}
{"COMPOUND": "COc1ccc(C2=C(Br)C(=O)OC2)cc1Cl", "TEST_SYSTEM": "T-47D breast", "COMPARISON_SYMBOL": "=", "RESULT": 35.5}
{"COMPOUND": "CN(C)C/C=C(/c1ccc(Br)cc1)c1cccnc1", "TEST_SYSTEM": "T-47D breast", "COMPARISON_SYMBOL": ">", "RESULT": 100}
{"COMPOUND": "Nc1cccc(-c2nc3sccn3c2-c2ccnc(NCCCNS(=O)(=O)c3ccc(C(F)(F)F)cc3)n2)c1", "TEST_SYSTEM": "T-47D breast", "COMPARISON_SYMBOL": "=", "RESULT": 5.18}
{"COMPOUND": "COC(=O)C1=C(O)C(C(=O)OC)[C@]2(O)[C@H](C(=O)OC)[C@H]1C[C@@H](c1ccccc1OC)[C@H]2C(=O)OC (stereo not given in full)", "TEST_SYSTEM": "T-47D breast", "COMPARISON_SYMBOL": ">", "RESULT": 76.1}
{"COMPOUND": "NC(=S)SC1=NNC2(C(=O)N1)c1ccccc1-c1ccccc12", "TEST_SYSTEM": "T-47D breast", "COMPARISON_SYMBOL": ">", "RESULT": 10}
{"COMPOUND": "C=CC[Se]C(=O)c1ccccc1OC(C)=O", "TEST_SYSTEM": "T-47D breast", "COMPARISON_SYMBOL": "=", "RESULT": 6.06}
{"COMPOUND": "C=C1C(=O)O[C@H]2[C@H]1CC/C(COC(=O)NCc1c[nH]c3ccc(OC)cc13)=C\\CC[C@@]1(C)O[C@@H]21", "TEST_SYSTEM": "T-47D breast", "COMPARISON_SYMBOL": "=", "RESULT": 4.38}
{"COMPOUND": "COc1ccc2cc(-c3ccc(OC)c(OC)c3)c(=O)oc2c1", "TEST_SYSTEM": "T-47D breast", "COMPARISON_SYMBOL": ">", "RESULT": 100}
{"COMPOUND": "COc1cc(C2=Nc3c/c(=C\\c4c(O)[nH]c5ccc(Cl)cc45)ccc3=N2)cc(OC)c1OC", "TEST_SYSTEM": "T-47D breast", "COMPARISON_SYMBOL": "=", "RESULT": 37.3}
